Reported values of Turf quality for individual entries
Experiment: Turf plot trial at Clemson University (Example 85), turf quality
Type: in vivo, creeping bentgrass, cv. Pennlinks
Conditions: Table 6; May 8, 2002; 1 to 9 scale; 50 grams active ingredient per 1000 square feet
Protocol: Plots of creeping bentgrass, cv. “Pennlinks,” were treated with water based sprays of the test compounds. Sprays were delivered by CO2-charged sprayer to deliver the equivalent of 2 gallons of spray per 1000 sq. ft of plot area. Plots were 15 sq. ft. each, and treatments were mixed to apply material to 75 sq. ft (5 replicates), although only 4 replicates were treated. […] For brown patch, caused by Rhozoctonia sofani. a visual estimate of the percent of the plot area affected was recorded. […]
Report the figure in a without appending any unit label.

Below, 5 compounds whose answers are already recorded.
{"compound": "C=C(C)[C@@H]1CC[C@]2(COC(=O)C[n+]3ccc(N(C)C)cc3)CC[C@]3(C)C(CCC4[C@@]5(C)CC[C@H](OC(=O)C[n+]6ccc(N(C)C)cc6)C(C)(C)C5CC[C@]43C)C12.[Cl-].[Cl-] (stereo partly drawn)", "measurement kind": "Turf quality", "test value": 3.25}
{"compound": "C=C(C)[C@@H]1CC[C@]2(CO)CC[C@]3(C)C(CCC4[C@@]5(C)CC[C@H](OC(=O)C[N+](C)(C)CCCCCCCCCCCCCC)C(C)(C)C5CC[C@]43C)C12.[Cl-] (stereo partly drawn)", "measurement kind": "Turf quality", "test value": 3.13}
{"compound": "C=C(C)[C@@H]1CC[C@]2(COC(=O)C[N+](C)(C)CCCCCCCC)CC[C@]3(C)C(CCC4[C@@]5(C)CC[C@H](OC(=O)C[N+](C)(C)CCCCCCCC)C(C)(C)C5CC[C@]43C)C12.[Cl-].[Cl-] (stereo partly drawn)", "measurement kind": "Turf quality", "test value": 3.00}
{"compound": "C=C(C)[C@@H]1CC[C@]2(COC(=O)C[N+](C)(C)CCCCCCCCCCCCCC)CC[C@]3(C)C(CCC4[C@@]5(C)CC[C@H](OC(=O)C[N+](C)(C)CCCCCCCCCCCCCC)C(C)(C)C5CC[C@]43C)C12.[Cl-].[Cl-] (stereo partly drawn)", "measurement kind": "Turf quality", "test value": 3.05}
{"compound": "C=C(C)[C@@H]1CC[C@]2(CO)CC[C@]3(C)C(CCC4[C@@]5(C)CC[C@H](OC(=O)C[N+](C)(CCCCCCCCCC)CCCCCCCCCC)C(C)(C)C5CC[C@]43C)C12.[Cl-] (stereo partly drawn)", "measurement kind": "Turf quality", "test value": 3.20}

What Turf quality value was documented for this compound, C=C(C)[C@@H]1CC[C@]2(COC(=O)C(C)[N+]34CCN(CC3)CC4)CC[C@]3(C)C(CCC4[C@@]5(C)CC[C@H](OC(=O)C(C)[N+]67CCN(CC6)CC7)C(C)(C)C5CC[C@]43C)C12.Cl.Cl (stereo partly drawn) ?
3.00

====

Measured MIC, listed per entry for reference.
Tested on: Staphylococcus aureus Methicillin-resistant
Assay: Anti-bacterial activity, broth culture MIC
Format: cell-based
Conditions: Staphylococcus aureus, read-out: Approximate Minimum Inhibitory Concentration, MIC
Value expressed in µg/mL; do not type the unit.

Please review the following examples before continuing.
{"compound": "Br.C=C(C[n+]1ccc(N(C)C)cc1)[C@@H]1CC[C@]2(COC(C)=O)CC[C@]3(C)C(CCC4[C@@]5(C)CC[C@H](OC(C)=O)C(C)(C)C5CC[C@]43C)C12 (stereo partly shown)", "MIC, µg/mL": 5}
{"compound": "Br.Br.C=C(C)[C@@H]1CC[C@]2(COC(=O)CCC[N+]34CCN(CC3)CC4)CC[C@]3(C)C(CCC4[C@@]5(C)CC[C@H](OC(=O)CCC[N+]67CCN(CC6)CC7)C(C)(C)C5CC[C@]43C)C12 (stereo partly shown)", "MIC, µg/mL": 2}
{"compound": "Br.C=C(C)[C@@H]1CC[C@]2(COC(=O)CCC[n+]3ccc(N(C)C)cc3)CC[C@]3(C)C(CCC4[C@@]5(C)CC[C@H](OC(=O)CCC[n+]6ccc(N(C)C)cc6)C(C)(C)C5CC[C@]43C)C12 (stereo partly shown)", "MIC, µg/mL": 5}

Next compound, MIC to be filled in.
Looking for the measured MIC of C=C(C[N+]12CCN(CC1)CC2)[C@@H]1CC[C@]2(COC(C)=O)CC[C@]3(C)C(CCC4[C@@]5(C)CC[C@H](OC(C)=O)C(C)(C)C5CC[C@]43C)C12.[Br-] (stereo partly shown) , can you help?
5

====

Parameter Turf quality: see the listing below.
Experiment: Antifungal treatment on turf grass plots (Example 84), turf quality
Format: in vivo, creeping bentgrass, cv. Pennlinks
Conditions: Table 3 experiment; Jun. 25, 2001; 1 to 9 scale, 9 perfect; 17.8 g/1000 sq. ft. (Daconil Ultrex 3.2 oz./1000 sq. ft.)
Output spec: single numeric token, no unit.

Consider the following illustrative entries.
{"compound": "C=C(C)[C@@H]1CC[C@]2(COC(=O)C[N+](C)(C)CCN(C)C)CC[C@]3(C)C(CCC4[C@@]5(C)CC[C@H](OC(=O)C[N+](C)(C)CCN(C)C)C(C)(C)C5CC[C@]43C)C12.[Cl-].[Cl-] (stereo partly shown) [Compound 7]", "Turf quality": 4.36}
{"compound": "C=C(C)[C@@H]1CC[C@]2(COC(=O)C[n+]3ccccc3)CC[C@]3(C)C(CCC4[C@@]5(C)CC[C@H](OC(=O)C[n+]6ccccc6)C(C)(C)C5CC[C@]43C)C12.[Cl-].[Cl-] (stereo partly shown) [Compound 1]", "Turf quality": 4.88}
{"compound": "C=C(C)[C@@H]1CC[C@]2(COC(=O)CC[n+]3ccccc3)CC[C@]3(C)C(CCC4[C@@]5(C)CC[C@H](OC(=O)CC[n+]6ccccc6)C(C)(C)C5CC[C@]43C)C12.[Cl-].[Cl-] (stereo partly shown) [Compound 14]", "Turf quality": 4.88}

// Turf quality lookup, key: C=C(C[N+]12CCN(CC1)CC2)[C@@H]1CC[C@]2(COC(C)=O)CC[C@]3(C)C(CCC4[C@@]5(C)CC[C@H](OC(C)=O)C(C)(C)C5CC[C@]43C)C12.[Br-] (stereo partly shown) [Compound 18]
4.63

====

Test: Turf plot trial at Clemson University (Example 85), turf quality
Format: in vivo, creeping bentgrass, cv. Pennlinks
Details: Table 5; May 27, 2002; 1 to 9 scale; 50 grams active ingredient per 1000 square feet
measurement kind: Turf quality (ab)
Hi! Could you send only the number? It should be in ab, unit omitted.

Examples from the recorded data:
{"molecule": "C=C(C)[C@@H]1CC[C@]2(COC(=O)C[N+](C)(C)CCCCCCCCCCCCCC)CC[C@]3(C)C(CCC4[C@@]5(C)CC[C@H](OC(=O)C[N+](C)(C)CCCCCCCCCCCCCC)C(C)(C)C5CC[C@]43C)C12.[Cl-].[Cl-] (stereo partly drawn)", "unit name": "ab", "Turf quality": 3.38}
{"molecule": "C=C(C)[C@@H]1CC[C@]2(CO)CC[C@]3(C)C(CCC4[C@@]5(C)CC[C@H](OC(=O)C[N+](C)(C)CCCCCCCCCCCCCC)C(C)(C)C5CC[C@]43C)C12.[Cl-] (stereo partly drawn)", "unit name": "ab", "Turf quality": 4.47}
{"molecule": "C=C(C)[C@@H]1CC[C@]2(COC(=O)C[N+](C)(C)CCCCCCCC)CC[C@]3(C)C(CCC4[C@@]5(C)CC[C@H](OC(=O)C[N+](C)(C)CCCCCCCC)C(C)(C)C5CC[C@]43C)C12.[Cl-].[Cl-] (stereo partly drawn)", "unit name": "ab", "Turf quality": 3.60}

Recorded Turf quality for C=C(C)[C@@H]1CC[C@]2(COC(=O)C[n+]3ccc(N(C)C)cc3)CC[C@]3(C)C(CCC4[C@@]5(C)CC[C@H](OC(=O)C[n+]6ccc(N(C)C)cc6)C(C)(C)C5CC[C@]43C)C12.[Cl-].[Cl-] (stereo partly drawn) , please?
4.00

====

Tested on: brown patch, caused by Rhozoctonia sofani
Test: Antifungal treatment on turf grass plots (Example 84), brown patch
Assay type: in vivo
Conditions: Table 3 experiment; Jun. 25, 2001; 17.8 g/1000 sq. ft. (Daconil Ultrex 3.2 oz./1000 sq. ft.)
measurement kind: Brown Patch % of plot infected (%)
I only need the number, in %, no unit after it.

{"compound": "C=C(C)[C@@H]1CC[C@]2(COC(=O)C[N+](C)(C)CCN(C)C)CC[C@]3(C)C(CCC4[C@@]5(C)CC[C@H](OC(=O)C[N+](C)(C)CCN(C)C)C(C)(C)C5CC[C@]43C)C12.[Cl-].[Cl-] (stereo partly shown)", "target system": "brown patch, caused by Rhozoctonia sofani", "measurement kind": "Brown Patch % of plot infected", "unit name": "%", "test value": 17.5}

Which Brown Patch % of plot infected reading was recorded for the compound C=C(C)[C@@H]1CC[C@]2(COC(=O)CC[n+]3ccccc3)CC[C@]3(C)C(CCC4[C@@]5(C)CC[C@H](OC(=O)CC[n+]6ccccc6)C(C)(C)C5CC[C@]43C)C12.[Cl-].[Cl-] (stereo partly shown) ?
16.3

Need Brown Patch % of plot infected, item C=C(C[N+]12CCN(CC1)CC2)[C@@H]1CC[C@]2(COC(C)=O)CC[C@]3(C)C(CCC4[C@@]5(C)CC[C@H](OC(C)=O)C(C)(C)C5CC[C@]43C)C12.[Br-] (stereo partly shown)
14.8

Return reported Brown Patch % of plot infected; argument: C=C(C)[C@@H]1CC[C@]2(COC(=O)C[n+]3ccccc3)CC[C@]3(C)C(CCC4[C@@]5(C)CC[C@H](OC(=O)C[n+]6ccccc6)C(C)(C)C5CC[C@]43C)C12.[Cl-].[Cl-] (stereo partly shown)
15.8

FYI, the data here is from patent US7199114B2.
